Tested on: tracheae from guinea pigs
ASSAY SUMMARY: passive Shultz-Dale reaction (broncho-dilative activity), relaxation of antigen-contracted tracheal strips
Design: species or system Male Hartley guinea pigs
REPORTED CONDITIONS: Cavia porcellus; concentration of 50% relaxation; passively sensitized guinea pig tracheal zig-zag strips, 37° C., antigen (egg white albumin) 1 μg/ml
METRIC: pIC50
// returns pIC50 (minus log10 of molar concentration), number only

Query: Note down pIC50 recorded for S=c1c2[nH]cnc2c2cccnc2n1-c1ccccc1
Result: 5.32
